Entry source: ChEMBL document CHEMBL5137066

test_name: Volume of distribution at steady state in Sprague-Dawley rat at 1 mg/kg, iv
Assay type: ADME, organism-based
condition_set: in vivo, read-out: Vdss
value_kind: Vd (L/kg)
// units = L/kg; emit number, no label

In: Fill blank: measured Vd of the compound CO[C@@H]1CCN(c2nccc(Nc3cc4c(C(C)C)ccc(N5C[C@H](CS(C)(=O)=O)[C@H]5C)c4cn3)n2)C[C@@H]1F [TIGOZERTINIB] is ____.
Out: 2.3

###

test_name: Volume of distribution at steady state in cynomolgus monkey at 0.5 mg/kg, iv
Assay type: ADME, organism-based, Macaca fascicularis
condition_set: in vivo, read-out: Vdss
value_kind: Vd
Form entry: enter the amount, then its unit.

In: Fill blank: measured Vd of the compound CO[C@@H]1CCN(c2nccc(Nc3cc4c(C(C)C)ccc(N5C[C@H](CS(C)(=O)=O)[C@H]5C)c4cn3)n2)C[C@@H]1F [TIGOZERTINIB] is ____.
Out: 1.6 L/kg

###

test_name: Intrinsic clearance in human liver microsomes
Assay type: ADME, Microsome
condition_set: microsomes
value_kind: Microsomal intrinsic clearance (µL/min/mg)
// units = µL/min/mg; emit number, no label

In: Fill blank: measured Microsomal intrinsic clearance of the compound CC(C)c1cnc(N2CC(CS(C)(=O)=O)C2)c2cnc(Nc3ccnc(N4CC[C@@H](O)[C@@](C)(F)C4)n3)cc12 is ____.
Out: 9.6

In: Fill blank: measured Microsomal intrinsic clearance of the compound COC1CN(c2ncc(C(C)C)c3cc(Nc4ccnc(N5CC[C@@H](O)[C@@](C)(F)C5)n4)ncc23)C1 is ____.
Out: 91

In: Fill blank: measured Microsomal intrinsic clearance of the compound CC(C)c1nnc(N2CC[C@H]2C)c2cnc(Nc3ccnc(N4CC[C@@H](O)[C@@](C)(F)C4)n3)cc12 is ____.
Out: 96

In: Fill blank: measured Microsomal intrinsic clearance of the compound CC(C)c1ncc(N2CC[C@H]2C)c2cnc(Nc3ccnc(N4CC[C@@H](O)[C@@](C)(F)C4)n3)cc12 is ____.
Out: 159

In: Fill blank: measured Microsomal intrinsic clearance of the compound CC(C)c1ncc(N2C[C@H](O)[C@H]2C)c2cnc(Nc3ccnc(N4CC[C@@H](O)[C@@](C)(F)C4)n3)cc12 is ____.
Out: 45

In: Fill blank: measured Microsomal intrinsic clearance of the compound CC(C)c1cnc(N2CC(O)C2)c2cnc(Nc3ccnc(N4CC[C@@H](O)[C@@](C)(F)C4)n3)cc12 is ____.
Out: 43

In: Fill blank: measured Microsomal intrinsic clearance of the compound CC(C)c1cnc(N2CC(C(=O)N(C)C)C2)c2cnc(Nc3ccnc(N4CC[C@@H](O)[C@@](C)(F)C4)n3)cc12 is ____.
Out: 102

In: Fill blank: measured Microsomal intrinsic clearance of the compound CC(C)c1cnc(N2CCC2)c2cnc(Nc3ccnc(N4CC[C@@H](O)[C@@](C)(F)C4)n3)cc12 is ____.
Out: 106

In: Fill blank: measured Microsomal intrinsic clearance of the compound CC(C)c1ccc(N2C[C@H](O)[C@H]2C)c2cnc(Nc3ccnc(N4CC[C@@H](O)[C@@](C)(F)C4)n3)cc12 is ____.
Out: 17

In: Fill blank: measured Microsomal intrinsic clearance of the compound CNC(=O)c1cnc(Nc2ccnc(N3CC[C@@H](O)[C@@H](F)C3)n2)cc1NC(C)C is ____.
Out: 9.1

In: Fill blank: measured Microsomal intrinsic clearance of the compound CNC(=O)c1cnc(Nc2ccnc(N3CCC(O)CC3)n2)cc1NC(C)C is ____.
Out: 4

In: Fill blank: measured Microsomal intrinsic clearance of the compound CC(C)c1cnc(N2CCCC2)c2cnc(Nc3ccnc(N4CC[C@@H](O)[C@@](C)(F)C4)n3)cc12 is ____.
Out: 65

In: Fill blank: measured Microsomal intrinsic clearance of the compound CC(C)c1cnc(N2CC(C#N)C2)c2cnc(Nc3ccnc(N4CC[C@@H](O)[C@@](C)(F)C4)n3)cc12 is ____.
Out: 85

In: Fill blank: measured Microsomal intrinsic clearance of the compound CC(C)c1cnc(N2CC[C@H]2C)c2cnc(Nc3ccnc(N4CC[C@@H](O)[C@@](C)(F)C4)n3)cc12 is ____.
Out: 80

In: Fill blank: measured Microsomal intrinsic clearance of the compound CC(C)c1cnc(N2C[C@H](O)[C@H]2C)c2cnc(Nc3ccnc(N4CC[C@@H](O)[C@@](C)(F)C4)n3)cc12 is ____.
Out: 25

In: Fill blank: measured Microsomal intrinsic clearance of the compound CNc1ncc(C(C)C)c2cc(Nc3ccnc(N4CC[C@@H](O)[C@@](C)(F)C4)n3)ncc12 is ____.
Out: 31
